Sourced from paper PMC5540273

System: MEK1
Construct: gene MAP2K1
test parameters: concentration: 1 μM, replicates: in singlicate; n = 1;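 also: KINOMEscan kinase panel screen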
readout type: %Inh (%)
# value in %; strip the unit string

Before answering, review these 10 worked examples.
compound	%Inh (%)
COC(=O)Nc1nc2cc(Oc3ccc(NC(=O)Nc4cc(F)ccc4F)cc3)ccc2[nH]1.Cl	0
COc1cc2c(cc1OC[C@@H](O)CO)ncc1c3ccc(C#N)cc3[nH]c21	45
CSc1ccc(-c2cc3ncnc(SCC(=O)O)c3s2)cc1	0
CC(C)Oc1ccc2c(-c3ccnc(Nc4ccc(N5CCN(C)CC5)cc4)n3)cnn2n1	25
O=C1Cc2cc(Nc3nc(NCc4cccc(S(=O)(=O)C(F)(F)F)c4)ncc3C(F)(F)F)ccc2N1	0
COc1ccc(Nc2nccc(N3CCC(NC(=O)Nc4cccc(C(C)=O)c4)C3)n2)cc1 (stereo not drawn)	0
CC(=O)Nc1ccc(COc2ccc(Nc3ccnc4cc(-c5ccccn5)ccc34)cc2)cc1.Cl	51
COc1cc2ncn(-c3cc(OCc4sccc4Cl)c(C(N)=O)s3)c2cc1OC	0
Fc1ccc(-c2ncn(CCCN3CCOCC3)c2-c2ccccn2)cc1	6
O=C(NCCNc1ccnc(Nc2ccc(F)cc2)n1)Nc1ccccc1F	0

Prompt line: Supply %Inh value. Item: O=C(Nc1n[nH]c2cc(-c3cccc(F)c3)ccc12)C1CC1
Response line: 8

Prompt line: Supply %Inh value. Item: C[C@@H](Oc1cc(-n2cnc3ccc(NC(=O)NC(C)(C)C)cc32)sc1C(N)=O)c1ccccc1Cl
Response line: 0

Prompt line: Supply %Inh value. Item: Cc1c2ccc(N(C)c3ccnc(Nc4cccc(S(N)(=O)=O)c4)n3)cc2nn1Cc1ccccc1.Cl.Cl
Response line: 12

Prompt line: Supply %Inh value. Item: CCc1ccnc(/C=C/c2n[nH]c3cc(Sc4ccccc4C(=O)NC)ccc23)c1
Response line: 0

Prompt line: Supply %Inh value. Item: CN(C(=O)c1ccc(-c2cc(-c3c[nH]nc3-c3ccccn3)ccn2)cc1)C1CCOCC1
Response line: 0

Prompt line: Supply %Inh value. Item: Cc1cn2c(=O)cc(N3CCOCC3)nc2n1Cc1cccc(Cl)c1Cl
Response line: 11

Prompt line: Supply %Inh value. Item: Cn1ccc2ncnc(Oc3ccc(NC(=O)Nc4ccncc4)c(Cl)c3)c21
Response line: 40

Prompt line: Supply %Inh value. Item: COc1ccc(CNC(=O)NC2CCN(c3ccnc(Nc4ccc(OC)cc4)n3)C2)cc1 (stereo not drawn)
Response line: 0

###

System: AURKC
test parameters: concentration: 1 μM, replicates: in singlicate; n = 1
Please assign no whenever %Inh is at or above 5%, and yes whenever it is below.

compound	assayed system	group
COc1ccc(COc2cc(-n3cnc4ccccc43)sc2C(N)=O)cc1	AURKC	no

Prompt line: Take the compound Cn1ccc2ncnc(Oc3ccc(NC(=O)Nc4ccncc4)c(Cl)c3)c21 and say whether its %Inh is less than 5%.
Response line: yes

Prompt line: Take the compound O=C(NCCCN1CCOCC1)c1cccc(Nc2nccc(Nc3ccc(Oc4ccccc4)cc3)n2)c1 and say whether its %Inh is less than 5%.
Response line: no

Prompt line: Take the compound COc1ccc(CNC(=O)NC2CCN(c3ccnc(Nc4ccc(OC)cc4)n3)C2)cc1 (centres unmarked) and say whether its %Inh is less than 5%.
Response line: no

###

System: MKNK2
test parameters: concentration: 1 μM, replicates: in singlicate; n = 1
readout type: %Inh (%)
# value in %; strip the unit string

compound	assayed system	readout type	measured number
NS(=O)(=O)c1cccc(-c2ccc3nccc(-c4cccc(S(N)(=O)=O)c4)c3c2)c1 [GW867253]	MKNK2	%Inh	0

Prompt line: Supply %Inh value. Item: Fc1ccc(-c2ncn(CCCN3CCOCC3)c2-c2cccnc2)cc1 [SB-211743]
Response line: 0

Prompt line: Supply %Inh value. Item: O=C(Nc1n[nH]c2cc(-c3cccc(F)c3)ccc12)C1CC1 [SB-735464]
Response line: 29

Prompt line: Supply %Inh value. Item: Cc1nnc(-c2ccc3occ(-c4ccc(C(C)O)cc4)c3c2)o1 (stereo not shown)
Response line: 0

###

A collection of molecules and their measured %Inh
Test system: RIPK5
test parameters: concentration: 1 μM, replicates: in singlicate; n = 1
# value in %; strip the unit string

molecule	%Inh, %
c1ccc(-c2cc(-c3c[nH]nc3-c3ccccn3)ccn2)cc1 [GW576604]	0
Nc1nccc(-c2c(-c3ccc(F)cc3)ncn2C2CCN(CC(F)(F)F)CC2)n1 [SB-236560]	13

Let us examine a further case.
Prompt line: Lab note: record %Inh of CC(C)(CN)c1nc(-c2ccc(Cl)c(O)c2)c(-c2ccncc2)[nH]1.O=C(O)C(F)(F)F [SB-477794] tested on RIPK5.
Response line: 0

###

Test system: AURKC
test parameters: concentration: 1 μM, replicates: in singlicate; n = 1
readout type: %Inh (%)
# value in %; strip the unit string

Before answering, review these 5 worked examples.
compound	readout type	unit abbreviation	measured number
CC(=O)Nc1ccc(COc2ccc(Nc3ccnc4cc(-c5ccccn5)ccc34)cc2)cc1.Cl	%Inh	%	46
CN(C(=O)c1ccc(-c2cc(-c3c[nH]nc3-c3ccccn3)ccn2)cc1)C1CCOCC1	%Inh	%	7
Nc1nc(-c2ccc3c(N)n[nH]c3c2)cc(N2CCCC2)n1	%Inh	%	37
CC(C)(C)n1cnc2c(N)ncnc21	%Inh	%	0
O=c1cc(N2CCOCC2)nc2n(Cc3cccc(F)c3)ccn12	%Inh	%	32

Prompt line: Supply %Inh value. Item: COc1cc2ncn(-c3cc(OCc4sccc4Cl)c(C(N)=O)s3)c2cc1OC
Response line: 41

###

Tested on: RIOK2
test parameters: concentration: 1 μM, replicates: in singlicate; n = 1
A collection of compounds and their measured %Inh
# value in %; strip the unit string

compound	measured number
Cc1nnc(-c2ccc3ncc(-c4ccc(S(C)=O)cc4)n3c2)o1 (stereo not drawn)	0
O=C(c1ccc(-c2cc(-c3c[nH]nc3-c3ccccn3)ccn2)cc1)N1CCOCC1	0
O=C1NC(=O)C(N2CCc3ccccc32)=C1c1cccc(Cl)c1	0
NCC(NC(=O)c1cc(-c2cn[nH]c2)c(-c2ccnc3[nH]ccc23)s1)c1ccccc1.O=C(O)C(F)(F)F.O=C(O)C(F)(F)F (stereo not drawn)	34
CCc1nc(-c2cccc(C)c2)c(-c2ccnc(NCc3ccccc3)c2)s1	0

Prompt line: Lab note: record %Inh of Fc1ccc(-c2ncn(CCCN3CCOCC3)c2-c2ccccn2)cc1 tested on RIOK2.
Response line: 0

Prompt line: Lab note: record %Inh of O=C(NCCCN1CCOCC1)c1cccc(Nc2nccc(Nc3ccc(Oc4ccccc4)cc3)n2)c1 tested on RIOK2.
Response line: 23

Prompt line: Lab note: record %Inh of Cc1nnc(-c2ccc3occ(-c4ccc(C(C)O)cc4)c3c2)o1 (stereo not drawn) tested on RIOK2.
Response line: 36

Prompt line: Lab note: record %Inh of CC(C)(C)n1cnc2c(N)ncnc21 tested on RIOK2.
Response line: 0

###

System: JNK3
Construct: gene MAPK10
test parameters: concentration: 1 μM, replicates: in singlicate; n = 1
readout type: %Inh (%)
# value in %; strip the unit string

Before answering, review these 5 worked examples.
compound	unit abbreviation	%Inh
Cc1ccc(NC(=O)c2ccnc(N3CCN(C)CC3)c2)cc1-c1ccc(C(=O)NCC2CC2)cc1 [GW775604]	%	0
NS(=O)(=O)c1cccc(-c2ccc3ncc(N4CCOCC4)nc3c2)c1 [GSK1535721]	%	0
Fc1ccc(-c2nn3c(OCC(F)(F)F)cccc3c2-c2ccncc2)cc1 [GW514784]	%	99.9
Cc1nnc(-c2ccc(C)c(-c3ccc(C(=O)Nc4ccc(NS(C)(=O)=O)cc4)cc3)c2)o1 [GW702865]	%	0
NS(=O)(=O)c1cccc(-c2ccc3nccc(-c4cccc(S(N)(=O)=O)c4)c3c2)c1 [GW867253]	%	0

Prompt line: Lab note: record %Inh of c1ccc(-c2n[nH]cc2-c2ccnc3ccccc23)nc1 [GW271431] tested on JNK3.
Response line: 12

Prompt line: Lab note: record %Inh of O=C1Cc2cc(Nc3nc(NCc4cccc(S(=O)(=O)C(F)(F)F)c4)ncc3C(F)(F)F)ccc2N1 tested on JNK3.
Response line: 0

Prompt line: Lab note: record %Inh of CN(C(=O)c1ccc(-c2cc(-c3c[nH]nc3-c3ccccn3)ccn2)cc1)C1CCOCC1 [GW810083] tested on JNK3.
Response line: 38

###

System: HIPK2
test parameters: concentration: 1 μM, replicates: in singlicate; n = 1
readout type: %Inh (%)
# value in %; strip the unit string

Before answering, review these 3 worked examples.
compound	measured number
CC(C)Oc1ccc2c(-c3ccnc(Nc4ccc(N5CCN(C)CC5)cc4)n3)cnn2n1	98.7
O=C(NCCCN1CCOCC1)c1cccc(Nc2nccc(Nc3ccc(Oc4ccccc4)cc3)n2)c1	0
Cl.Oc1cccc(Nc2ccnc3cc(-c4ccncc4)ccc23)c1	0

Let us examine a further case.
Prompt line: Supply %Inh value. Item: Cc1c(Cn2c(C)nn3c(=O)cc(N4CCOC(C)C4)nc23)cccc1C(F)(F)F (stereo not shown)
Response line: 0
